# system-tested: Voltage-dependent T-type calcium channel subunit alpha-1H (Homo sapiens, UniProt O95180)
# Sequence (O95180 whole entry): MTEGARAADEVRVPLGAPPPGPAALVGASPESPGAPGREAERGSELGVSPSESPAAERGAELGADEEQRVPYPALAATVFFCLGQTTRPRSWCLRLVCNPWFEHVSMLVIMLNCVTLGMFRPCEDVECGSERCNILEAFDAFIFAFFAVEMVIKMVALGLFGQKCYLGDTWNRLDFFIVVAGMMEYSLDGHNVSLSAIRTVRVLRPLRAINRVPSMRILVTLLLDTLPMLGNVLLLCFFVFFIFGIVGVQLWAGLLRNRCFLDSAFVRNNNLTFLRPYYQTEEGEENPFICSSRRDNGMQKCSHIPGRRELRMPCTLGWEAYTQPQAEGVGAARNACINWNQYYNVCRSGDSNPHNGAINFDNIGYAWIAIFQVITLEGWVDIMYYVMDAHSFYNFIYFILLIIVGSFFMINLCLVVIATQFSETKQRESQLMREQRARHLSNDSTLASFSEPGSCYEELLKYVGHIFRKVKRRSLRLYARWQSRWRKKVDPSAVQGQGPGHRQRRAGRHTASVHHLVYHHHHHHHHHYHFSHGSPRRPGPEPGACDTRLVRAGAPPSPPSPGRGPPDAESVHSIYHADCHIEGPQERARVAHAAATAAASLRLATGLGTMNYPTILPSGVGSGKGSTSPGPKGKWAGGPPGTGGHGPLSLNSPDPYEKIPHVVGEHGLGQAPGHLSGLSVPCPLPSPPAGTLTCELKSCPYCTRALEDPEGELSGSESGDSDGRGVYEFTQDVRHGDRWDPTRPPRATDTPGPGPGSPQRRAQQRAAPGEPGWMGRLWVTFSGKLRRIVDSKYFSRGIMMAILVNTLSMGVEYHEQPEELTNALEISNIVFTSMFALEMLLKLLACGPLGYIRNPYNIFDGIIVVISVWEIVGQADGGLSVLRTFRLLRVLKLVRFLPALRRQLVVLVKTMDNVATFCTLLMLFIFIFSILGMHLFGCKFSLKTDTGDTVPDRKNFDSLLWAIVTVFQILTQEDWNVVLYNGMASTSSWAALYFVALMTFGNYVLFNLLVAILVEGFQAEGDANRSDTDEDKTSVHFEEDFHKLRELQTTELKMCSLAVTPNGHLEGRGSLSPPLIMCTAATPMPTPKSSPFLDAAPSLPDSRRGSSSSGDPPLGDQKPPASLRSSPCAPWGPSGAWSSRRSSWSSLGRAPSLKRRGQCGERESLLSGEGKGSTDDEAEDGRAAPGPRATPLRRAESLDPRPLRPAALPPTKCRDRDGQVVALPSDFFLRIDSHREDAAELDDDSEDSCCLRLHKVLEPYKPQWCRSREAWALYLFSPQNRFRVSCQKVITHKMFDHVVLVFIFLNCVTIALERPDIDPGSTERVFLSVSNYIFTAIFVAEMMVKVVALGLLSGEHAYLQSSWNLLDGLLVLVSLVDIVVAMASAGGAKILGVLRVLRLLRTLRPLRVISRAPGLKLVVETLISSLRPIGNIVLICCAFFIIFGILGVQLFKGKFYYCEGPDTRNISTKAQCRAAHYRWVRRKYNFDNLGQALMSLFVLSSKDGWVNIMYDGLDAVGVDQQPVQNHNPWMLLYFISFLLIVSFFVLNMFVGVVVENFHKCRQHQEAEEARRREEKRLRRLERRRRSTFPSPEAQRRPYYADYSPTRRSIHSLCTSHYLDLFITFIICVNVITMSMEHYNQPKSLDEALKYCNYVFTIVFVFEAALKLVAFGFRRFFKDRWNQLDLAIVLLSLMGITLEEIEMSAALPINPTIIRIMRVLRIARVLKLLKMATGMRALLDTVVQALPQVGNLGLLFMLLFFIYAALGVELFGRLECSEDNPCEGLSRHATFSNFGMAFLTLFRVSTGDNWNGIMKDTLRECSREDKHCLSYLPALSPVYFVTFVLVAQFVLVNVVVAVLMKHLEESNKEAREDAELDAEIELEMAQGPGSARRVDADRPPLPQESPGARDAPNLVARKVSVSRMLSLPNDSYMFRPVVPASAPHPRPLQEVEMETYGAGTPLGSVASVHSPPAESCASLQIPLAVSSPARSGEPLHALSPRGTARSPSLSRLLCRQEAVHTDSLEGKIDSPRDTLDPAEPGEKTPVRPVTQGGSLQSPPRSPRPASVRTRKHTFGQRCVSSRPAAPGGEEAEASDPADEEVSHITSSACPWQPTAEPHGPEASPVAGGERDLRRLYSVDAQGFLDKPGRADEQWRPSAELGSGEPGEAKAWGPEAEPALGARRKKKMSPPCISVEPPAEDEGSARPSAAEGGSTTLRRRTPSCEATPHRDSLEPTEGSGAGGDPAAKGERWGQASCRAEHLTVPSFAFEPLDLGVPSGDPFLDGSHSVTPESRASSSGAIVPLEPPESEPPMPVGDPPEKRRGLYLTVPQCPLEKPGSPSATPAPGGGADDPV
# assay-method-text: Channel blocking activity at recombinant human CaV 3.2 channel expressed in HEK293 cells assessed as inhibition of Ca2+ flux preincubated for 3 mins followed by CaCl2 addition by fluo-4 dye-based FLIPR assay
# Type: cell-based
pIC50: −log10 of the molar value.
Label class 1 when pIC50 is at or above 7; anything below gets class 0.

Would you please look over these solved cases?
- compound: "C[C@@H]1CN(Cc2ccc(F)c(F)c2)c2ccccc2[C@H](C)N1C(=O)Nc1cccnc1 (racemic)"
  label-value: "class 1"
- compound: "C[C@@H]1CN(c2ccccc2)c2ccccc2[C@H](C)N1C(=O)NCc1ccccc1 (racemic)"
  label-value: "class 0"
- compound: "C[C@@H]1CN(Cc2ccccc2)c2cccnc2[C@H](C)N1C(=O)NCc1ccccc1 (racemic)"
  label-value: "class 0"

Request: Exam item: decide whether the reported pIC50 for C[C@@H]1CN(Cc2cccc(F)c2F)c2ccccc2[C@H](C)N1C(=O)NCc1ccccc1 (racemic) is at least 7.
Result: class 1

Request: Exam item: decide whether the reported pIC50 for C[C@@H]1CN(Cc2ccccc2)c2cc(OCC(F)(F)F)ccc2[C@H](C)N1C(=O)Nc1cccnc1 (racemic) is at least 7.
Result: class 0

Request: Exam item: decide whether the reported pIC50 for C[C@@H]1C(=O)N(Cc2ccccc2)c2ccccc2[C@H](C)N1C(=O)NCc1ccccc1 (racemic) is at least 7.
Result: class 0

Request: Exam item: decide whether the reported pIC50 for C[C@@H]1CN(Cc2ccccc2)c2cc(C#N)ccc2[C@H](C)N1C(=O)Nc1cccnc1 (racemic) is at least 7.
Result: class 0
